All figures here come from ChEMBL document CHEMBL4393688.

Would you mind telling me the reported pKi of each entry?
Target Or Test System: Sigma intracellular receptor 2 (Homo sapiens, UniProt Q5BJF2)
Sequence (Q5BJF2 whole entry): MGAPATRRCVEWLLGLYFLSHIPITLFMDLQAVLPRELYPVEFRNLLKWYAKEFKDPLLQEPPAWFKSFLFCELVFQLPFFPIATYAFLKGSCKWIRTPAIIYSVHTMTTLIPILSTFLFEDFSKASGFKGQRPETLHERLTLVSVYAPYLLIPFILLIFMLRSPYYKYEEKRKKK
Assay Notes: Displacement of [3H]-DTG from sigma2 receptor (unknown origin) incubated for 120 mins by scintillation counting method
In simple prose, pKi is minus the logarithm base ten of a concentration in moles per litre.

Query block: Output measured pKi for this item: `Clc1ccc2oc(SCCN3CCCCCC3)nc2c1`
Result block: 7.06

Query block: Kindly indicate its recorded pKi. Item: `Clc1ccc2sc(SCCCCN3CCCCCC3)nc2c1`
Result block: 7.66

Query block: Determine its reported pKi: `Clc1ccc2sc(SCCCN3CCCCCC3)nc2c1`
Result block: 8.10

Query block: Give the value of pKi reported for the following: `O=c1oc2ccc(Cl)cc2n1CCN1CCCCCC1`
Result block: 6.19

Query block: Tell us which pKi value is on record for `O=c1sc2ccc(Cl)cc2n1CCN1CCCCCC1`
Result block: 5.78

Query block: Query pKi for `O=c1sc2ccc(Cl)cc2n1CCCN1CCCCCC1`
Result block: 7.16

Query block: Output pKi of `Clc1ccc2oc(SCCCN3CCCCCC3)nc2c1`
Result block: 7.80

Query block: Give the measured pKi for `O=c1sc2ccc(Cl)cc2n1CCCCN1CCCCCC1`
Result block: 8.12

Query block: Fill in pKi for record `Clc1ccc2oc(SCCCCN3CCCCCC3)nc2c1`
Result block: 7.96

Query block: Quick one: give measured pKi for `O=c1oc2ccc(Cl)cc2n1CCCCN1CCCCCC1`
Result block: 8.42

Query block: // Input: `O=c1oc2ccc(Cl)cc2n1CCCN1CCCCCC1` . Output its pKi only.
Result block: 7.19
